test system: Fibrinogen (Alexa647-labelled); assay: fibrinogen binders on compound microarrays, profiling panel, artefact control for SMM control-protein annotation, biochemical, small-molecule microarray, 635/667 nm fluorescence (AID 1131); settings: fibrinogen-A647 binding fluorescence, higher = more signal;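 further: z-score merges 667 nm fluorescence with per-spot signal-to-noise over triplicate slides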
outcome-measure: composite z-score
Provide a numeric answer; units are not to be included.

>>> value_reported("COCCCNC(=O)[C@@]1(Sc2ccc(C)cc2)CC(=O)N(Cc2cc(C(F)(F)F)cc(C(F)(F)F)c2)[C@@H]1c1ccc(CO)cc1I")
-1.86
>>> value_reported("NC(=O)NCC#Cc1ccc2c(c1)[C@]1(C(=O)N2)[C@H](c2ccccc2OCCO)N2[C@H](c3ccccc3)[C@H](c3ccccc3)OC(=O)[C@H]2[C@@H]1C(=O)N1CCN(c2ncccn2)CC1")
0.814
>>> value_reported("COc1cccc([C@H]2N[C@H](C(=O)O)CC[C@@H]2C)c1")
0.363
>>> value_reported("C=C(CCCC)/C(=C/C[C@H](OC(=O)c1ccncc1)c1cccc(OCCO)c1)c1cc(C(=O)OC)ccc1OC")
0.723

Continue with the next compound.
Lookup: Any idea what composite z-score was measured for `CC[C@@H]1C=C(C(=O)O)[C@H](c2ccccc2)N1S(=O)(=O)c1ccc([N+](=O)[O-])cc1` ?
Found: -0.368

----------
target: Calmodulin-1 (Homo sapiens); test: calcium-bound CALM1 binders on microarrays, profiling panel, artefact control for SMM control-protein annotation, biochemical, small-molecule microarray, Cy5-labelled CALM1, plus calcium (AID 1112); conditions: Cy5-CALM1 binding fluorescence, higher = more signal;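 further: score merges spot fluorescence with signal to noise from triplicate slides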
outcome-measure: composite z-score
Answer using only a numeral; do not append any unit.

>>> value_reported("O=C1C2C=CC(C(O)c3ccccc3)N(n3cnnc3)C2C(=O)N1Cc1ccccc1 (stereo unspecified)")
-0.372
>>> value_reported("C=CCC(OC(C)=O)[C@@H]1[C@@H](N(Cc2ccc(-c3ccccc3)cc2)C(=O)c2ccc(C)cc2)c2cc(OCCCO)ccc2N1C(=O)c1ccc(-c2ccccc2)cc1 (stereo partly specified)")
1.22
>>> value_reported("CO[C@H]1COC(=O)[C@H](CCSC)NC(=O)CC=C[C@@H](C)COC(=O)[C@@H](OCc2ccccc2)C=C[C@@H]1C")
-1.6
>>> value_reported("CCCCCCc1nc(C2CC2)c(C)c2c1[Si](C(C)C)(C(C)C)OC2")
-0.111
>>> value_reported("O=C/C=C/c1ccccc1Cl")
0.618

Lookup: Any idea what composite z-score came out for `COc1ccc(-c2ccccc2[C@@H]2N[C@H](C(=O)O)CC[C@H]2C)cc1` on Calmodulin-1 (Homo sapiens)?
Found: -0.699

Lookup: Kindly state the measured composite z-score obtained for `COc1ccc([Si](C)(C)[C@@H]2[C@@H](CCO)O[C@]3(C(=O)N(Cc4ccccc4)c4ccccc43)[C@H]2C)cc1` with Calmodulin-1 (Homo sapiens).
Found: 0.49

----------
assay: small-molecule microarray binders of probe aCHRDL2, primary screen, biochemical, biotinylated probe, 635/667 nm fluorescence (AID 1100); settings: higher = more signal
outcome-measure: composite z-score

>>> value_reported("O=C1OCC=C[C@H]2OC34C=CCN(Cc5ccccc5)C(=O)[C@H]3N(CCO)C(=O)[C@@H]4[C@@H]12 (some centres not stated)")
0.679
>>> value_reported("C=CC[C@@]12N=C(c3ccc(OCCCO)cc3)O[C@@H]1c1ccccc1CN(Cc1ccccc1)C2=O")
0.757
>>> value_reported("C=CCC(OC(C)=O)[C@@H]1[C@@H](N(Cc2ccc(-c3ccccc3)cc2)C(=O)c2ccc(-c3ccccc3)cc2)c2cc(OCCCO)ccc2N1C(=O)Cc1ccc(OC)cc1 (some centres not stated)")
0.026
>>> value_reported("CC(C)CNC(=O)[C@@]1(C)c2ccccc2C(=O)N(Cc2ccc(OC(F)(F)F)cc2)[C@H]1c1ccc(CO)cc1")
1.14
>>> value_reported("O=C1O[C@H](c2ccccc2)[C@H](c2ccccc2)N2[C@H]1[C@@H](C(=O)NC[C@H](O)c1ccccc1)[C@]1(C(=O)Nc3ccc(C#CC4(O)CCCCCC4)cc31)[C@H]2c1ccc(OCCO)cc1")
0.713
>>> value_reported("COCCOC(=O)N1C(=O)[C@@]2(c3cc(C#CC4(O)CCCCCC4)ccc31)[C@H](C(=O)N1CCCCCCC1)[C@H]1C(=O)O[C@H](c3ccccc3)[C@H](c3ccccc3)N1[C@@H]2c1ccc(O)cc1")
1.55

Lookup: Need composite z-score, item `Cc1ccc(N2C(=O)c3ccccc3[C@](C)(C(=O)NCC(C)C)[C@@H]2c2ccc(CO)cc2)nc1`
Found: 0.481
